# assay_remarks: chemical genetic growth profiling, strain panel (AID 1159580);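 further: tested at 20 µM; growth read once vehicle control cultures reached saturation at 30 °C; 1 = growth at the plate median or of vehicle wells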
# condition_label: S. cerevisiae deletion strains, growth OD, locus YDR101C, strain arx1, hits give low values
Screen size: about 5,500 compounds; about 2,000 (36%) were called active. Inconclusive results (about 18%) are left out. The list shows a part of the results.
Binary call on normalized growth with cut-off 1: strictly below means 1, and equality or higher means -1.

Reference set (3 entries):
{"compound": "CN1C2CC3C[C@H]1C(O3)C2O (some centres undefined)", "answer_label": -1}
{"compound": "COc1c(O)cc2oc3cc(O)c(CC=C(C)C)c(O)c3c(=O)c2c1CC=C(C)C", "answer_label": 1}
{"compound": "OCc1ccccc1O[C@@H]1O[C@H](CO)[C@@H](O)[C@H](O)[C@H]1O", "answer_label": 1}

Please look at the following compound next.
Answer whether the compound Cc1cc(=O)c2c(O)c(C)c(O)cc2o1 has normalized growth strictly less than 1
1

---

# assay_remarks: chemical genetic growth profiling, strain panel (AID 1159580)
# condition_label: S. cerevisiae deletion strains, growth OD, locus YKR091W, strain srl3, hits give low values
About 2,000 (36%) of roughly 5,500 compounds were called active. Another 18% or so got no clear call; they are omitted. The list shows a part of the results.
Each record here notes measured normalized growth.

If you can, please state the reported normalized growth value of NCC1CCCCC1CC(=O)O (stereo unspecified) .
1.02 (inactive)

Cool, now Cc1c(N(C)C)c(=O)n(-c2ccccc2)n1C
0.976 (inactive)

Also check CN1CCc2cc3c(cc2C1O)OCO3 (stereo unspecified)
0.992 (inactive)

Queued: CC(C)(N=NC(C)(C)C(=N)N)C(=N)N
1.02 (inactive)

---

# assay_remarks: chemical genetic growth profiling, strain panel (AID 1159580)
# condition_label: S. cerevisiae deletion strains, growth OD, locus YCL061C, strain MRC1 (second series), hits give low values
The campaign covered roughly 5,500 compounds. About 2,000 (36%) were called active. Another 18% or so got no clear call; they are omitted. This is one part of the list.
assay_endpoint: normalized growth
Lab note: record the figure alone, no unit after it.

Examples from the recorded data:
{"compound": "CC[N+](C)(C)Cc1ccccc1Br", "normalized growth": 1.01}
{"compound": "CC(N)Cc1c[nH]c2ccc(O)cc12 (stereo not given)", "normalized growth": 1}
{"compound": "N#CC(Cc1ccc(O)c(O)c1)C(=O)N1CCc2ccccc21 (stereo not given)", "normalized growth": 0.986}
{"compound": "CC(=O)OC1C(=O)C2(C)C(O)CC3OCC3(OC(C)=O)C2C(OC(=O)c2ccccc2)C2(O)CC(OC(=O)C(O)C(NC(=O)c3ccccc3)c3ccccc3)C(C)=C1C2(C)C (stereo not given)", "normalized growth": 0.996}
{"compound": "CSC(=N)N", "normalized growth": 1.01}

Need normalized growth, item Nc1nc2[nH]c(=O)cnc2c(=O)[nH]1
0.994

Similarly, Oc1ccc(O)cc1 ?
0.978

And for Oc1ccc(Cn2cc[nH]c2=S)cc1 ?
1.01

Try this compound too: N#C/C(=C\c1ccc(O)c(O)c1)C(=O)Nc1ccccc1
1.01

Now try CCCc1c(OCCCOc2ccc(OCC(=O)O)cc2)ccc(C(C)=O)c1O .
0.999

---

# assay_remarks: chemical genetic growth profiling, strain panel (AID 1159580)
# condition_label: S. cerevisiae deletion strains, growth OD, locus YHR082C, strain KSP1, hits give low values
About 2,000 (36%) of roughly 5,500 compounds were called active. Inconclusive results (about 18%) are left out. This is one part of the list.
assay_endpoint: normalized growth
Give the value as a plain number.

{"molecule": "C/C(=N/NC(N)=S)c1ccccn1", "normalized growth": 0.932}
{"molecule": "Cc1c(Cl)cccc1NC(=S)N1CCCN(c2nc3ccc(Cl)cc3s2)CC1", "normalized growth": 1.06}
{"molecule": "CCC(C)c1ccccc1NC(=O)c1cc2cccc([N+](=O)[O-])c2[nH]1 (stereo not given)", "normalized growth": 0.905}
{"molecule": "O=C(C=C(O)c1ccc(Br)cc1)C(=O)Nc1ccccc1", "normalized growth": 0.136}
{"molecule": "C=CC(=O)N1CCc2cc([N+](=O)[O-])ccc21", "normalized growth": 0.263}

Requested field: normalized growth. Item: Cc1cc(SCc2[nH]nc3oc(=O)cc(C)c23)c(Cl)cc1Cl
1.13

Also, CC(C)(C)C1=NN(c2nc3ccc(Cl)cc3s2)C(=O)C1 please.
0.121

Another: Cn1cncc1S(=O)(=O)/C(C#N)=C/c1ccccc1Sc1ccc(Cl)cc1
0.6

# repeat for N#C/C(=C\c1ccccc1Sc1ccc(Cl)cc1)S(=O)(=O)c1ccccn1
0.939

Same read-out for O=C(Nc1c(Br)c(C2CC2)nn1-c1ccccc1)C(Cl)(Cl)Cl ?
0.919

---

# assay_remarks: chemical genetic growth profiling, strain panel (AID 1159580);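 further: tested at 20 µM; growth read once vehicle control cultures reached saturation at 30 °C; 1 = growth at the plate median or of vehicle wells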
# condition_label: S. cerevisiae deletion strains, growth OD, locus YIL066C, strain RNR3
About 2,000 (36%) of roughly 5,500 compounds were called active. Roughly 18% stayed inconclusive and do not appear here. Rule as the data show it: active = normalized growth mostly below about 0.91 (no sharp cut-off); inconclusive = no clear call, values can overlap the other calls; inactive = mostly above about 0.92. Some of the results follow.
Please state which outcome applies, choosing from Y for active, N for inactive

// below: answered molecules
{"molecule": "O=C(O)c1ccccc1OP(=O)(O)O", "answer_label": "N"}
{"molecule": "CC1(C)C2CC[C@]3(C)C(C(=O)C=C4[C@H]5C[C@@](C)(C(=O)O)CC[C@]5(C)CC[C@]43C)[C@@]2(C)CC[C@@H]1O (stereo partly drawn)", "answer_label": "N"}
{"molecule": "O=C(/C=C/C=C/c1ccc2c(c1)OCO2)N1CCCCC1", "answer_label": "N"}

Lab log entry: NC(N)=Nc1nc(CSCCC(N)=NS(N)(=O)=O)cs1 — outcome as called in the assay?
N

Queued: C=CC1=C(C(=O)O)N2C(=O)[C@@H](NC(=O)/C(=N/O)c3csc(N)n3)[C@H]2SC1
N

Next molecule up: CC(C(=O)O)c1ccc2c(c1)[nH]c1ccc(Cl)cc12 (stereo not drawn)
N

Lookup COc1ccc(CC2c3cc(OC)c(OC)cc3CCN2C)cc1OC (stereo not drawn)
N

And then CC(C)N(C(=O)CCl)c1ccccc1 , what is it?
N

---

This listing pairs molecules with measured normalized growth.
# assay_remarks: chemical genetic growth profiling, strain panel (AID 1159580);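 further: tested at 20 µM; growth read once vehicle control cultures reached saturation at 30 °C; 1 = growth at the plate median or of vehicle wells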
# condition_label: S. cerevisiae deletion strains, growth OD, locus YGL086W, strain mad1, hits give low values
Among all 5,500 compounds or so, about 2,000 (36%) were called active. Inconclusive results (about 18%) are left out. The list shows a part of the results.
Write the value as a bare number.

Please review the entries below; each comes with its answer.
{"molecule": "CC1(C)C2CC[C@]3(C)C(C(=O)C=C4[C@@H]5C[C@@](C)(C(=O)O)CC[C@]5(C)CC[C@]43C)[C@@]2(C)CC[C@@H]1OC(=O)CCC(=O)O (stereo not given in full)", "assay_endpoint": "normalized growth", "reported_measurement": 0.999}
{"molecule": "CC(C)=CCc1c(O)cc(C)oc1=O", "assay_endpoint": "normalized growth", "reported_measurement": 1.01}
{"molecule": "NC/C=C/C(=O)O", "assay_endpoint": "normalized growth", "reported_measurement": 1.04}
{"molecule": "CC1(C)S[C@@H]2[C@H](NC(=O)[C@H](NC(=O)N3CCNC3=O)c3ccccc3)C(=O)N2C1C(=O)O (stereo not given in full)", "assay_endpoint": "normalized growth", "reported_measurement": 1.02}
{"molecule": "Oc1c(Cl)c(Cl)c(Cl)c(Cl)c1Cl", "assay_endpoint": "normalized growth", "reported_measurement": 0.772}
{"molecule": "CC(=O)OCC(CCn1cnc2cnc(N)nc21)COC(C)=O", "assay_endpoint": "normalized growth", "reported_measurement": 0.984}
{"molecule": "NC(=O)c1ncn([C@@H]2O[C@H](CO)[C@@H](O)[C@H]2O)c1O", "assay_endpoint": "normalized growth", "reported_measurement": 1.02}
{"molecule": "COc1cc(OC)c2c(c1)O[C@H](c1ccc(OC)c(OC)c1)[C@@H](O)C2", "assay_endpoint": "normalized growth", "reported_measurement": 1}

I would be grateful if you could share the reported normalized growth for COc1ccc2c(c1)OC[C@@H](Cc1ccc(OC)c(OC)c1)[C@H]2O .
0.989

Same again, this time with CN=C(NC#N)NCCSCc1nc[nH]c1C
1

---

# assay_remarks: chemical genetic growth profiling, strain panel (AID 1159580);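 further: tested at 20 µM; growth read once vehicle control cultures reached saturation at 30 °C; 1 = growth at the plate median or of vehicle wells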
# condition_label: S. cerevisiae deletion strains, growth OD, locus YPR163C, strain tif3
In all, about 5,500 compounds went through this assay and about 2,000 (36%) were called active. Not shown: some 18% with an inconclusive outcome. Rule as the data show it: active = normalized growth mostly below about 0.91 (no sharp cut-off); inconclusive = no clear call, values can overlap the other calls; inactive = mostly above about 0.92. The list shows a part of the results.
Write down one outcome, taken from class 1 (active), class 0 (inactive)

Solved entries (count: 8):
{"compound": "O=C1C[C@@H](c2ccccc2)Oc2cc(O)cc(O)c21", "answer_label": "class 0"}
{"compound": "COC(=O)COc1cc(Cl)c(Cl)cc1Cl", "answer_label": "class 0"}
{"compound": "C1CCc2nnnn2CC1", "answer_label": "class 0"}
{"compound": "COC1C(O)C(O)C(O)[C@@H](O)C1O (some centres not stated)", "answer_label": "class 0"}
{"compound": "NC/C=C/C(=O)O", "answer_label": "class 0"}
{"compound": "CCCCCCCCCCCCC[N+](C)(C)Cc1ccccc1", "answer_label": "class 1"}
{"compound": "COC(=O)c1c(Cl)c(Cl)c(C(=O)OC)c(Cl)c1Cl", "answer_label": "class 0"}
{"compound": "COc1cc2c(cc1OC)C(=O)C(CC1CCN(Cc3ccccc3)CC1)C2 (configuration not stated)", "answer_label": "class 1"}

Returns: the outcome recorded for Cc1c(O)cc(O)c2c(=O)c(-c3ccc(O)cc3)coc12 in this assay.
class 0

Again, but for C=C1CC[C@H](O)C/C1=C/C=C1\CCC[C@]2(C)C([C@H](C)/C=C/[C@H](C)C(C)C)CC[C@@H]12 (some centres not stated)
class 0

Next record, please: CC1(C)S[C@@H]2[C@H](NC(=O)[C@H](NC(=O)N3CCNC3=O)c3ccccc3)C(=O)N2C1C(=O)O (some centres not stated)
class 0

Queued: NC(N)=NOCC[C@H](N)C(=O)O
class 0

Record: CN=C(NC#N)NCCSCc1nc[nH]c1C
class 0

Cool, now NC(N)=Nc1nc(CSCCC(N)=NS(N)(=O)=O)cs1
class 0
